So I've got a bunch of compounds here, and I need their pKi values.
molecular target: Acetylcholine receptor (Torpedo californica, UniProt P02710+P02712+P02714+P02718); experiment: Binding affinity against nicotinic acetylcholine receptor (nAChR)
Sequence (P02710 whole entry): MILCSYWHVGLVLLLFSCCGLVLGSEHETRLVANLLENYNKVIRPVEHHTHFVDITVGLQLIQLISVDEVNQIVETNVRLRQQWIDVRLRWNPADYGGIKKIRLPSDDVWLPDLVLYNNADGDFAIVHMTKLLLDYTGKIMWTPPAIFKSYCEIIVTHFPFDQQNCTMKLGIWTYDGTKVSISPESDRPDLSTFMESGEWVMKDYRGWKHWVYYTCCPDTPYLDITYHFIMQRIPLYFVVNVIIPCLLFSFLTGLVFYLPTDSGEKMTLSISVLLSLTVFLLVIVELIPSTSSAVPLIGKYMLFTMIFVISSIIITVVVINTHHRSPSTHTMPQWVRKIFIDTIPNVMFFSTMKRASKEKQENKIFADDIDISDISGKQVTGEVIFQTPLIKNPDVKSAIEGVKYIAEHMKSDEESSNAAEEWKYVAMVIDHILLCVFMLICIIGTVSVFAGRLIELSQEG
Sequence (P02712 whole entry): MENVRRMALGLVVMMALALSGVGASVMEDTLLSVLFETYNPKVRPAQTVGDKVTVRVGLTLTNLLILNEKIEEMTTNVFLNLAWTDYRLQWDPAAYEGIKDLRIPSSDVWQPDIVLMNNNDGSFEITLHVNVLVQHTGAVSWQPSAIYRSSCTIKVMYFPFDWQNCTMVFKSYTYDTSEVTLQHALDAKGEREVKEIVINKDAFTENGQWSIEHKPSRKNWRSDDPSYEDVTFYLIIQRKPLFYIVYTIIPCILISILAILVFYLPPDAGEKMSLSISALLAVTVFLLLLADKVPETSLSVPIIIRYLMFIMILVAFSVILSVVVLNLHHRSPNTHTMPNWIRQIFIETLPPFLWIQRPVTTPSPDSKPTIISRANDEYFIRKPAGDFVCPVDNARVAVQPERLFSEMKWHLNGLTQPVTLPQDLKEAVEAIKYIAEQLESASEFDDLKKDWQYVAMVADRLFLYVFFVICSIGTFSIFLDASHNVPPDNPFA
Sequence (P02718 whole entry): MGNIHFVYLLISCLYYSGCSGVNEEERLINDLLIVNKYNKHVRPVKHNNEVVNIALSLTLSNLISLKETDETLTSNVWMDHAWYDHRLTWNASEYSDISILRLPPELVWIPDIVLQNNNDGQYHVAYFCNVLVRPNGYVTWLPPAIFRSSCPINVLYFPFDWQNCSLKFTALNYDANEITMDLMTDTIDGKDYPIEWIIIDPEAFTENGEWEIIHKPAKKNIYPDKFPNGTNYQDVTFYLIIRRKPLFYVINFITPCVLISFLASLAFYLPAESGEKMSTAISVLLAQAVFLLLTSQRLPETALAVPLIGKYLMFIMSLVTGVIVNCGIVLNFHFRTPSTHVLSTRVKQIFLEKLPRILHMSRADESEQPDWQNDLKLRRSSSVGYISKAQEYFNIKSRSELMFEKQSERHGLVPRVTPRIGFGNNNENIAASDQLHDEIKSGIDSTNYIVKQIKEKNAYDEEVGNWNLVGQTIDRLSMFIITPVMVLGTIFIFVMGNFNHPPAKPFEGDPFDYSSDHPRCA
Sequence (P02714 whole entry): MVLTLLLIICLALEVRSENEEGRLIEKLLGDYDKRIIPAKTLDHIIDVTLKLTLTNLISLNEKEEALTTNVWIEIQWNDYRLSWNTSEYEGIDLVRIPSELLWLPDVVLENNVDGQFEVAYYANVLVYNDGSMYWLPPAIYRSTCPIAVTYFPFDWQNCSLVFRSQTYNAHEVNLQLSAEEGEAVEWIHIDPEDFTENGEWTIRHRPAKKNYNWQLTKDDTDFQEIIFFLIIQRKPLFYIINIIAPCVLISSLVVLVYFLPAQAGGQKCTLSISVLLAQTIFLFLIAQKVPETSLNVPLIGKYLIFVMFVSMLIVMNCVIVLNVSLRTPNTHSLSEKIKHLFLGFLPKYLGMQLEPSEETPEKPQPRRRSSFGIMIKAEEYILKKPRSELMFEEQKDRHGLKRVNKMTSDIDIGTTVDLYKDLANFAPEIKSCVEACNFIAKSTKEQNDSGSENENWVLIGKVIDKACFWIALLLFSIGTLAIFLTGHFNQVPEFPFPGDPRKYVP
Please note pKi is a logarithmic value: minus log10 of concentration in mol/L. Answer with that number alone.

Enquiry: Value lookup for pKi; key = `C[N+](C)(CCCCCC[N+](C)(C)Cc1cccc(O)c1O)Cc1cccc(O)c1O`
Return: 7.74

Enquiry: Sample `C[N+](C)(C)Cc1cccc(O)c1O` — what was its pKi?
Return: 4.55

----------
target: Acetylcholine receptor (Torpedo californica, UniProt P02710+P02712+P02714+P02718); test: Compound was evaluated for the binding constant for association with nicotinic acetylcholine receptor (nAChR)
Please respond with reported pKd for every item in the list.
Quick note: pKd means taking -log10 of the concentration in moles per liter.

Enquiry: Looking for the measured pKd of `C[N+](C)(CCCCCC[N+](C)(C)Cc1cccc(O)c1O)Cc1cccc(O)c1O` , can you help?
Return: 7.74

Enquiry: Reported pKd for C[N+](C)(C)CCCCCC[N+](C)(C)C [HEXAMETHONIUM BROMIDE] : what is it?
Return: 7.74

Enquiry: Please report the recorded pKd for `C[N+](C)(CCCCCCCCCC[N+](C)(C)Cc1cccc(O)c1O)Cc1cccc(O)c1O` .
Return: 6.64
